Target: HLA-Cw0602 (human)
PROPERTY_LABEL: pKi
Note on pKi: it is the negative log10 of concentration, concentration in mol/L.

> print(dat)
                                   binder  property.label  result.number
1  YAAQGYKVLV (modifications not checked)             pKi           5.04

// next entry
## Input Answer with the recorded pKi of YRRCRASGV (modifications not checked) only.
## Output 6.20

Data provenance: patent US20060093617A1
